Measured GI50 of individual entries
# Tested on: T-47D breast
# procedure.details: NCI tumour cell line growth inhibition, 48 h

molecule	GI50
C=C1C(=O)O[C@H]2[C@H]1CC/C(COC(=O)NCCCCNC(=O)OC/C1=C/CC[C@@]3(C)O[C@H]3[C@H]3OC(=O)C(=C)[C@@H]3CC1)=C\CC[C@@]1(C)O[C@@H]21	1.51 µM
O=C(Nc1n[nH]c2cc(-c3ccccc3)ccc12)C1CC1	17.8 µM
C=C(C)[C@@H]1CC[C@]2(CO)CC[C@]3(C)[C@H](CC[C@@H]4[C@@]5(C)C=C(C#N)C(=O)C(C)(C)[C@@H]5CC[C@]43C)[C@@H]12	1.12 µM
COc1cc(OC)c(C(=O)/C=C/c2cccc(C(F)(F)F)c2)c(OC)c1	1.61 µM
O=C1c2cccnc2-c2nc(-c3ccc(Cl)cc3)cc3c2c1nc1ccccc13	> 100 µM
CCCC(CCC)NCC(O)c1cc(-c2ccc(C(F)(F)F)cc2)nc(C(F)(F)F)c1 (configuration not stated)	1.7 µM
CN1CCN(CCCNc2nc3ccc(Oc4ccc(NC(=O)Nc5cc(C(F)(F)F)ccc5F)cc4)cc3[nH]2)CC1	3.43 µM

###

# Test system: SK-MEL-28 melanoma
# procedure.details: NCI tumour cell line growth inhibition, 48 h
measurement.label: TGI

> print(dat)
                                    compound  value.measured
 1                 C/C(=N/NC(N)=S)c1ccc[nH]1        > 100 µM
 2             N#Cc1[nH]c(=O)n(-c2ccccc2)c1N         > 10 µM
 3  COC(=O)Nc1nc2ccc(C3(c4ccc(F)cc4)OCCO3)cc2[nH]1        > 100 µM
 4  CCCCCCCCCCCC(=O)OCC(C[As](=O)(O)O)OC(=O)CCCCCCCCCCC (stereo unspecified)         10.1 µM
 5              O=C1c2ccsc2C(=O)c2sc(CO)cc21       0.0614 µM
 6  CC12OC(C(=O)C13CC3)C1C(=O)c3ccc4c(ccc5ccccc54)c3C(=O)C12 (stereo unspecified)        > 100 µM
 7     N#Cc1c(-c2ccccc2)[nH]c2ccc(Cl)cc2c1=O        > 100 µM
 8  CC(C)c1c(O)c(O)c2c(c1O)C(=O)C(O)=C1C(C)(C)CCC[C@@]12C         17.7 µM
 9            CCOC(=O)Cn1c(=O)ccn(COCCO)c1=O        > 100 µM
10  O=[N+]([O-])c1ccc(S(=O)(=O)n2c3ccc(Br)cc3c3nc4ccccc4nc32)cc1        > 100 µM
11               N#Cc1cc(-c2cc3ccccc3o2)oc1N         19.7 µM
12  CN1CCc2nc(N)nc(-c3nc(N)nc4c3CN(C)CC4)c2C1        > 100 µM
13  COc1ccc(C(=O)c2cc(C)c(OC)c(C)c2)c(OC)c1O        > 100 µM
14  O=C1c2ccccc2C(=O)N1CCCCNOCCCN1C(=O)c2ccccc2C1=O        > 100 µM
15  CCOC(C)O[C@H]1C(=O)OCC1(C)C (stereo partly specified)        > 100 µM
16          Clc1ccc(-c2cc3nc4ccccc4nc3o2)cc1        > 100 µM
17  COCc1nc2c(OC)c(-c3nc4nc(N5CCN(C)CC5)ccc4[nH]3)cc(OC)c2n1C           56 µM
18  C[Si](C)(C)OC1CC(=O)OC1n1cc(F)c(=O)[nH]c1=O (stereo unspecified)        > 100 µM
19    COc1c(C(=O)/C=C/c2ccccc2)c(O)cc2occc12         20.7 µM
20    Cc1cc2nc(C=C(C(F)(F)F)C(F)(F)F)oc2cc1C         > 10 µM
21  CC(=O)Oc1ccc2cc(-c3ccccc3OC(C)=O)c(=O)oc2c1        > 100 µM
